Values from patent US12570684B2

Test system: Capan-2
Assay: MTT cytotoxicity assay
Assay type: cell-based, human
Conditions: Homo sapiens, Capan-2, 72 h
property.label: IC50 (µM)
Your answer should be a plain number; it is taken to be in µM.

input: Fill in: IC50 of `CO[C@@H]1[C@H](O)[C@@H]([C@@H](O[C@H]2OC(C(=O)NCc3ccc(N4CCC(Oc5ccc(OC(F)(F)F)cc5)CC4)cc3)=C[C@H](O)[C@@H]2O)C(N)=O)O[C@H]1n1ccc(=O)[nH]c1=O` is ___
output: 40

====

Target: DPAGT1 (Human) (Homo sapiens)
Construct: made in house; host or cells: Expi293 cells (suspension)
Sequence (Q9H3H5 whole entry): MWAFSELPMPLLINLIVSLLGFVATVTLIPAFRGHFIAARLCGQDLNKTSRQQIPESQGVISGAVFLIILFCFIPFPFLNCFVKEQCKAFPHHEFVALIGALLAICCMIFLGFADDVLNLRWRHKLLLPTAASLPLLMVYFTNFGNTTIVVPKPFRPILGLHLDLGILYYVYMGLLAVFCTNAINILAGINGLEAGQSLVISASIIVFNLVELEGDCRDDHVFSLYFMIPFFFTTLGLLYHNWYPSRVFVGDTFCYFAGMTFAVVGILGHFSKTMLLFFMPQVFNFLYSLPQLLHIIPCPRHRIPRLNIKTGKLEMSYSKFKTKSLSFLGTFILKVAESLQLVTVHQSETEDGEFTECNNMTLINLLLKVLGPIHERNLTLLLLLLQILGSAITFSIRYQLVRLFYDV
Experiment: DPAGT1 assay
Format: biochemical
Details: listed as OM-CAP
property.label: pIC50
Bear in mind: pIC50 is minus log10 of a mol/L concentration; give just that figure.

input: Fill in: pIC50 of `CO[C@H]1[C@@H](OC)[C@H](n2ccc(=O)[nH]c2=O)O[C@@H]1[C@@H](O[C@H]1OC(C(=O)N[C@H]2CCCCNC2=O)=C[C@H](O)[C@@H]1O)C(N)=O` is ___
output: 5.46
